# Read-out: Plasminogen activator inhibitor-1 (PAI1), SERPINE1 (gene 5054)
# assay.procedure: BSK_hDFCGF_PAI1: BioMAP Diversity Plus: hDFCGF Assay for Plasminogen activator inhibitor-1 (PAI1) Biomarker Activity (AID 2283066)
# measurement.parameters: primary human foreskin fibroblasts; actives raise or lower the signal
# Description: BSK_hDFCGF is a cell-based, multiplexed-readout assay that uses foreskin fibroblast, a human skin primary cell, with measurements taken at 24 hours after chemical dosing in a 96-well plate.BSK_hDFCGF_PAI1 is an assay component measured in the BSK_hDFCGF assay. It measures PAI-1 antibody related to regulation of gene expression using ELISA technology.Data from the assay component BSK_hDFCGF_PAI1 was analyzed into 1 assay endpoint. […]
Calls of active or inactive are those of the source. The calls were made as follows: active = hit-call score of the fitted dose curve at least 0.9, where 1 is the maximum; inactive = score below 0.9.
Thanks in advance; please answer with one of these: true (1) for active, false (0) for inactive

Look over these answered cases.
O=C(O)C(F)(F)C(F)(F)C(F)(F)C(F)(F)F    false (0)
Nc1ccc([N+](=O)[O-])cc1O    false (0)
O=C(O)C(F)(F)C(F)(F)C(F)(F)C(F)(F)C(F)(F)C(F)(F)C(F)(F)C(F)(F)C(F)(F)C(F)(F)C(F)(F)C(F)(F)F    false (0)
CCc1c(Br)c(Br)c(Br)c(Br)c1Br    false (0)
FC(F)(F)C(F)(F)C(F)(F)C(F)(F)C(F)(F)C(F)(F)CCS    false (0)
CCc1ccc(C(c2ccc(CC)cc2)C(Cl)Cl)cc1    true (1)
C=C(C)C(=O)OCC(F)(F)C(F)(F)C(F)(F)C(F)(F)C(F)(F)C(F)(F)C(F)(F)F    false (0)
FC(F)(F)C(F)(F)C(F)(F)N(C(F)(F)C(F)(F)C(F)(F)F)C(F)(F)C(F)(F)C(F)(F)F    false (0)
CCCCCCCCC(F)(F)C(F)(F)C(F)(F)C(F)(F)C(F)(F)C(F)(F)F    false (0)
FC(F)(F)C(F)(F)CNCC(F)(F)C(F)(F)F    false (0)

Inquiry: Hello, I am checking results. What call was entered for `COC(=O)CCC(F)(F)C(F)(F)C(F)(F)C(F)(F)F` ?
Reply text: false (0)

Inquiry: Hello, I am checking results. What call was entered for `FC(F)(F)C(F)(F)C(F)(F)C(F)(F)C(F)(F)C(F)(F)C(F)(F)Br` ?
Reply text: false (0)

Inquiry: Hello, I am checking results. What call was entered for `O=C(O)C(F)(F)C(F)(F)C(F)F` ?
Reply text: false (0)

Inquiry: Hello, I am checking results. What call was entered for `CCCCCCCOC(=O)c1ccccc1C(=O)OCCCCCCC` ?
Reply text: false (0)

Inquiry: Hello, I am checking results. What call was entered for `C=CC(F)(F)C(F)(F)C(F)(F)C(F)(F)C(F)(F)C(F)(F)C(F)(F)C(F)(F)C=C` ?
Reply text: false (0)

Inquiry: Hello, I am checking results. What call was entered for O=C(O)C(F)(OC(F)(F)C(F)(OC(F)(F)C(F)(F)C(F)(F)F)C(F)(F)F)C(F)(F)F (centres undefined) ?
Reply text: false (0)

Inquiry: Hello, I am checking results. What call was entered for O=C(O)C(F)(OC(F)(F)C(F)(OC(F)(F)C(F)(OC(F)(F)C(F)(F)C(F)(F)F)C(F)(F)F)C(F)(F)F)C(F)(F)F (centres undefined) ?
Reply text: false (0)

Inquiry: Hello, I am checking results. What call was entered for `O=C(O)C(F)(F)C(F)(F)C(F)(F)F` ?
Reply text: false (0)

Inquiry: Hello, I am checking results. What call was entered for `CS(C)(=O)=O` ?
Reply text: false (0)
